Please respond with reported PPAR-γ Fold activation for every item in the list.
- system.tested: PPARγ (Homo sapiens)
- Construct: expressed in transfected cells; host or cells: CV-1 cells (ATCC CCL-70)
- Sequence (P37231 whole entry, species assumed): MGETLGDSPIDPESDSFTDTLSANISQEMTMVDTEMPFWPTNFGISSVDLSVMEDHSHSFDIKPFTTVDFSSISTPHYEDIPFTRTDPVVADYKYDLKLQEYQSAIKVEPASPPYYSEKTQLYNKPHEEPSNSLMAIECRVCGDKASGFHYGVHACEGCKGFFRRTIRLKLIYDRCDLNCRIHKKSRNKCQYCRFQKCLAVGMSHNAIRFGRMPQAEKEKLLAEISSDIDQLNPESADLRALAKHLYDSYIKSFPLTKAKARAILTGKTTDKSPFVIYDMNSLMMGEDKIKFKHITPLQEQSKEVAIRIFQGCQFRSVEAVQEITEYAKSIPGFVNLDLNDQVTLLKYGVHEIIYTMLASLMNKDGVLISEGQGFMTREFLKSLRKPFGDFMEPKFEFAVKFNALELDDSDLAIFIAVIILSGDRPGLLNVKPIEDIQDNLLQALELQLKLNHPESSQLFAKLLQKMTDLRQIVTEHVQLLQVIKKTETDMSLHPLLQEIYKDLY
- test.name: PPARγ transactivation assay (luciferase reporter) in transfected CV-1 cells
- Type: cell-based
- conditions.used: @ 1 μM
- Protocol: PPARγ activity was determined by transactivation assays in CV-1 cells (CCL-70 line from American Type Culture Collection (ATCC), Bethesda, Md.) transfected using the GenePorter transfection reagent (Gene Therapy Systems, San Diego, Calif.) to deliver 200 ng of a PPARγ expression plasmid and 1 μg of a luciferase reporter plasmid and 400 ng pCMVSport b-gal (Gibco, Grand Island, N.J.) as an internal control. […]
A number alone suffices; assume x.

Entry under test: CCCc1nc2c(C)cc(Br)cc2n1CCOc1ccc(CC2SC(=O)NC2=O)cc1C(=O)OC (stereo not shown) . Its PPAR-γ Fold activation was 32

Entry under test: CCCc1nc2c(C)cc(-c3nc4ccccc4n3C)cc2n1Cc1ccc(-c2ccc(C(=O)OC)cc2C(=O)OC)cc1 . Its PPAR-γ Fold activation was 5

Entry under test: COC(=O)c1cc(CC2SC(=O)NC2=O)ccc1OCCn1c(CCCCC2CCCCC2)nc2ccccc21 (stereo not shown) . Its PPAR-γ Fold activation was 24

Entry under test: CCCc1nc2c(C)cc(Br)cc2n1CCOc1ccc(CC2SC(=O)NC2=O)cc1C(=O)O (stereo not shown) . Its PPAR-γ Fold activation was 10

---

- system.tested: PPARγ (Homo sapiens)
- Construct: expressed in transfected cells; host or cells: CV-1 cells (ATCC CCL-70)
- test.name: PPARγ transactivation assay (luciferase reporter) in transfected CV-1 cells
- Type: cell-based
- conditions.used: @ 0.1 uM
Please respond with reported PPAR-γ Fold activation for every item in the list.
Be sure to follow the number with its unit.

Entry under test: COC(=O)c1cc(CC2SC(=O)NC2=O)ccc1OCCn1c(CCCCC2CCCCC2)nc2ccccc21 (stereo not shown) . Its PPAR-γ Fold activation was 2 x

Entry under test: CCCc1nc2c(C)cc(Br)cc2n1CCOc1ccc(CC2SC(=O)NC2=O)cc1C(=O)OC (stereo not shown) . Its PPAR-γ Fold activation was 3.1 x

Entry under test: CCCc1nc2c(C)cc(Br)cc2n1CCOc1ccc(CC2SC(=O)NC2=O)cc1C(=O)O (stereo not shown) . Its PPAR-γ Fold activation was 3.8 x

Entry under test: CCCc1nc2c(C)cc(-c3nc4ccccc4n3C)cc2n1Cc1ccc(-c2ccc(C(=O)OC)cc2C(=O)OC)cc1 . Its PPAR-γ Fold activation was 1 x
